- Tested on: HRV serotype 11
- Run Description: HRV cytopathic effect assay
- Assay type: cell-based
- Test Parameters: Human rhinovirus sp.

{"columns": ["Compound", "Experimental Target", "IC50"],
 "data": [
  ["Cc1cc(CCCOc2c(C)cc(-c3noc(C(F)(F)F)n3)cc2C)on1 [pleconaril]", "HRV serotype 11", "150 nM"]
]}

====

- System: HRV serotype 93
- Run Description: HRV cytopathic effect assay
- Type: cell-based
- Test Parameters: Human rhinovirus sp.
pIC50: −log10 of the molar value.
Recorded Metric: pIC50

{"columns": ["Mol", "Readout Value"],
 "data": [
  ["Cc1cc(CCCOc2c(C)cc(-c3noc(C(F)(F)F)n3)cc2C)on1", "< 4.90"]
]}

====

- Test system: HRV serotype 96
- Run Description: HRV cytopathic effect assay
- Assay type: cell-based
- Test Parameters: Human rhinovirus sp.
pIC50: −log10 of the molar value.

{"columns": ["Mol", "pIC50"],
 "data": [
  ["Cc1cc(CCCOc2c(C)cc(-c3noc(C(F)(F)F)n3)cc2C)on1", 7.05]
]}

====

- Test system: HRV serotype 28
- Run Description: HRV cytopathic effect assay
- Type: cell-based
- Test Parameters: Human rhinovirus sp.
pIC50: −log10 of the molar value.

{"columns": ["Compound", "pIC50"],
 "data": [
  ["Cc1cc(CCCOc2c(C)cc(-c3noc(C(F)(F)F)n3)cc2C)on1 [pleconaril]", 6.70]
]}

====

- Tested on: HRV serotype 4
- Run Description: HRV cytopathic effect assay
- Type: cell-based
- Test Parameters: Human rhinovirus sp.
pIC50: −log10 of the molar value.

{"columns": ["Mol", "pIC50"],
 "data": [
  ["Cc1cc(CCCOc2c(C)cc(-c3noc(C(F)(F)F)n3)cc2C)on1", "< 4.90"]
]}

====

- System: HRV serotype 8
- Run Description: HRV cytopathic effect assay
- Type: cell-based
- Test Parameters: Human rhinovirus sp.
pIC50: −log10 of the molar value.
Recorded Metric: pIC50

{"columns": ["Mol", "Recorded Metric", "Readout Value"],
 "data": [
  ["Cc1cc(CCCOc2c(C)cc(-c3noc(C(F)(F)F)n3)cc2C)on1", "pIC50", 5.47]
]}

====

- System: HRV serotype 91
- Run Description: HRV cytopathic effect assay
- Type: cell-based
- Test Parameters: Human rhinovirus sp.
pIC50: −log10 of the molar value.

{"columns": ["Mol", "pIC50"],
 "data": [
  ["Cc1cc(CCCOc2c(C)cc(-c3noc(C(F)(F)F)n3)cc2C)on1", 6.14]
]}

====

- Tested on: parainfluenza virus type 3, strain C243 (HPIV-3)
- Run Description: Virus cytopathic effect assay for other viruses
- Assay type: cell-based
- Test Parameters: Human respirovirus 3
pIC50: −log10 of the molar value.
Recorded Metric: pIC50

{"columns": ["Molecule", "Recorded Metric", "Readout Value"],
 "data": [
  ["Cc1cc(CCCOc2c(C)cc(-c3noc(C(F)(F)F)n3)cc2C)on1 [pleconaril]", "pIC50", "< 4.90"]
]}

====

- Test system: HRV serotype 76
- Run Description: HRV cytopathic effect assay
- Type: cell-based
- Test Parameters: Human rhinovirus sp.

{"columns": ["Mol", "IC50"],
 "data": [
  ["Cc1cc(CCCOc2c(C)cc(-c3noc(C(F)(F)F)n3)cc2C)on1", "240 nM"]
]}

====

- System: HRV serotype 69
- Run Description: HRV cytopathic effect assay
- Assay type: cell-based
- Test Parameters: Human rhinovirus sp.
- Method: For sensitivity testing to pleconaril, the appropriate cells were seeded into 96 well plates at a concentration of 4×10^4/well. After an overnight incubation at 37° C., the medium was removed and the cells were infected with 150 μL of a dilution of virus previously titrated to give ≧85% lysis of the monolayer after 3 days of incubation. […]

{"columns": ["Compound", "IC50, µM"],
 "data": [
  ["Cc1cc(CCCOc2c(C)cc(-c3noc(C(F)(F)F)n3)cc2C)on1 [pleconaril]", 6.77]
]}

====

- Run Description: Single dose oral pharmacokinetics in fed healthy young subjects
- Type: in vivo, human
- Test Parameters: human, plasma; fed healthy young subjects (N = 24), single oral dose 400 mg, mean

{"columns": ["Mol", "Tmax"],
 "data": [
  ["Cc1cc(CCCOc2c(C)cc(-c3noc(C(F)(F)F)n3)cc2C)on1", "3 h"]
]}

====

- Tested on: HRV serotype 17
- Run Description: HRV cytopathic effect assay
- Format: cell-based
- Test Parameters: Human rhinovirus sp.
pIC50: −log10 of the molar value.

{"columns": ["Compound", "pIC50"],
 "data": [
  ["Cc1cc(CCCOc2c(C)cc(-c3noc(C(F)(F)F)n3)cc2C)on1 [pleconaril]", 6.64]
]}

====

- Test system: HRV serotype 2
- Run Description: HRV cytopathic effect assay
- Assay type: cell-based
- Test Parameters: Human rhinovirus sp.; HRV2; Table 2, mean of at least two independent determinations
Recorded Metric: IC50 (nM)

{"columns": ["Mol", "Scale Unit", "Readout Value"],
 "data": [
  ["Cc1cc(CCCOc2c(C)cc(-c3noc(C(F)(F)F)n3)cc2C)on1", "nM", 30]
]}

====

- System: HRV serotype 31
- Run Description: HRV cytopathic effect assay
- Format: cell-based
- Test Parameters: Human rhinovirus sp.

{"columns": ["Compound", "Experimental Target", "IC50, nM"],
 "data": [
  ["Cc1cc(CCCOc2c(C)cc(-c3noc(C(F)(F)F)n3)cc2C)on1 [pleconaril]", "HRV serotype 31", 130]
]}

====

- Tested on: HRV serotype 42
- Run Description: HRV cytopathic effect assay
- Type: cell-based
- Test Parameters: Human rhinovirus sp.
pIC50: −log10 of the molar value.

{"columns": ["Mol", "pIC50"],
 "data": [
  ["Cc1cc(CCCOc2c(C)cc(-c3noc(C(F)(F)F)n3)cc2C)on1", "< 4.90"]
]}

====

- System: HRV serotype 39
- Run Description: HRV cytopathic effect assay
- Type: cell-based
- Test Parameters: Human rhinovirus sp.
Recorded Metric: IC50 (nM)

{"columns": ["Mol", "Readout Value"],
 "data": [
  ["Cc1cc(CCCOc2c(C)cc(-c3noc(C(F)(F)F)n3)cc2C)on1", 10]
]}

====

- Tested on: HRV serotype 23
- Run Description: HRV cytopathic effect assay
- Assay type: cell-based
- Test Parameters: Human rhinovirus sp.
Recorded Metric: IC50

{"columns": ["Mol", "Readout Value"],
 "data": [
  ["Cc1cc(CCCOc2c(C)cc(-c3noc(C(F)(F)F)n3)cc2C)on1", "320 nM"]
]}

====

- System: HRV serotype 14
- Run Description: HRV cytopathic effect assay
- Type: cell-based
- Test Parameters: Human rhinovirus sp.; serotype 14
- Experimental: For sensitivity testing to pleconaril, the appropriate cells were seeded into 96 well plates at a concentration of 4×10^4/well. After an overnight incubation at 37° C., the medium was removed and the cells were infected with 150 μL of a dilution of virus previously titrated to give ≧85% lysis of the monolayer after 3 days of incubation. […]
pIC50: −log10 of the molar value.
Recorded Metric: pIC50

{"columns": ["Mol", "Readout Value"],
 "data": [
  ["Cc1cc(CCCOc2c(C)cc(-c3noc(C(F)(F)F)n3)cc2C)on1", 6.80]
]}

====

- System: HRV serotype 12
- Run Description: HRV cytopathic effect assay
- Format: cell-based
- Test Parameters: Human rhinovirus sp.
Recorded Metric: IC50 (nM)

{"columns": ["Mol", "Readout Value"],
 "data": [
  ["Cc1cc(CCCOc2c(C)cc(-c3noc(C(F)(F)F)n3)cc2C)on1", 390]
]}

====

- Test system: HRV serotype 99
- Run Description: HRV cytopathic effect assay
- Format: cell-based
- Test Parameters: Human rhinovirus sp.
pIC50: −log10 of the molar value.
Recorded Metric: pIC50

{"columns": ["Mol", "Recorded Metric", "Readout Value"],
 "data": [
  ["Cc1cc(CCCOc2c(C)cc(-c3noc(C(F)(F)F)n3)cc2C)on1", "pIC50", "< 4.90"]
]}

====

- System: HRV serotype 81
- Run Description: HRV cytopathic effect assay
- Assay type: cell-based
- Test Parameters: Human rhinovirus sp.
pIC50: −log10 of the molar value.

{"columns": ["Compound", "Experimental Target", "pIC50"],
 "data": [
  ["Cc1cc(CCCOc2c(C)cc(-c3noc(C(F)(F)F)n3)cc2C)on1 [pleconaril]", "HRV serotype 81", 6.52]
]}

====

- Run Description: Pleconaril concentration in nasal mucus, clinical studies 843-043 and 843-044
- Test Parameters: human, nasal mucus, oral, 400 mg TID, Pleconaril Concentration (Nasal Mucus), Study 44, Day 6, 400 mg TID for five days, diluted samples, individual subjects

{"columns": ["Mol", "Scale Unit", "concentration at 6 day"],
 "data": [
  ["Cc1cc(CCCOc2c(C)cc(-c3noc(C(F)(F)F)n3)cc2C)on1", "ng/mL", 1.68]
]}
